Biological target: DRD2 (Homo sapiens)
Construct: purchased Promega (in-house HiBiT-GPCR construct library, NanoBRET)
Sequence (P14416 whole entry): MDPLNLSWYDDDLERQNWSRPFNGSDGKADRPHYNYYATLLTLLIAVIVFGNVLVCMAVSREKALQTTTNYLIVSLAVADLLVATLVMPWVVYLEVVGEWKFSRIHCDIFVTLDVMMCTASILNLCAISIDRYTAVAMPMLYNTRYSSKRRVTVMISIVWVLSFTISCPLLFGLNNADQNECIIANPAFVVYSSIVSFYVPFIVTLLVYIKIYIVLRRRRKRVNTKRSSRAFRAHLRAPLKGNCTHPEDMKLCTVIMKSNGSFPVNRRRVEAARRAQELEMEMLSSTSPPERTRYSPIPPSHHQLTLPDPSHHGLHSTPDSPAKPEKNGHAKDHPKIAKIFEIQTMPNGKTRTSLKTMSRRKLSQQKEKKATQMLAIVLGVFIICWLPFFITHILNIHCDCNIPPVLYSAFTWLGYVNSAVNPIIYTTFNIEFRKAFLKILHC
Assay: NanoBRET screen HiBiT-DRD2 in HEK293
Format: binding
Conditions: DRD2; tracer 0.1μM
Experimental: Each tracer candidate was screened across the entire library of HiBiT-GPCR constructs using NanoBRET as the detection modality. As depicted in Figure 4A, the specificity of interactions was evaluated through decrease in BRET due to competitive displacement of a bound tracer by excess parental compound. Each tracer was analyzed for binding to each HiBiT-GPCR fusion in the absence and in the presence of competing parental compound. […]
Catalogue of compounds with associated NanoBRET Fold Response
outcome_measure: NanoBRET Fold Response

# compound, outcome_measure, observed_value
rows = [
    ("O=C(CCOCCOCCOCCOCCNC(=O)CCc1ccc2n1[B-](F)(F)[N+]1=C(c3ccc[nH]3)C=CC1=C2)NCCCN1CCN(C2=Nc3ccccc3Oc3ccc(Cl)cc32)CC1 [Loxapine-a-2-NB590]", "NanoBRET Fold Response", 1.97),
    ("COc1ccccc1N1CCN(CCCCN2C(=O)c3ccc(CNC(=O)CCOCCNC(=O)c4ccc(CNC(=O)CCc5ccc6n5[B-](F)(F)[N+]5=C(c7ccc[nH]7)C=CC5=C6)cc4)cc3C2=O)CC1 [NAN-190-3-NB590]", "NanoBRET Fold Response", 1.80),
    ("COc1ccccc1N1CCN(CCCCN2C(=O)c3ccc(CNC(=O)CCOCCOCCOCCOCCNC(=O)CCc4ccc5n4[B-](F)(F)[N+]4=C(c6ccc[nH]6)C=CC4=C5)cc3C2=O)CC1 [NAN-190-2-NB590]", "NanoBRET Fold Response", 2.31),
]
